Test: log P by HPLC (OECD Guideline 117), method [a] acidic range
Format: physicochemical
Details: HPLC, method [a] acidic range
# logP[a] annotations

// worked examples, logP[a] included
> print(dat)
                                   compound  experimental.readout  result
1  CNn1c(N(C)C)nn(-c2cc(SCC(F)(F)F)c(C)cc2F)c1=O               logP[a]    3.03
2  O=c1n(-c2cc(SCC(F)(F)F)c(Cl)cc2Cl)nc(OCC(F)(F)F)n1C1CC1               logP[a]    4.14
3  O=c1n(-c2ccc(Cl)c(SCC(F)(F)F)c2)nc(C(F)(F)F)n1C1CC1               logP[a]    4.43
4  CCSc1nn(-c2cc(SCC(F)(F)F)c(C)cc2F)c(=O)n1CC               logP[a]    3.91
5  CCOc1nn(-c2cc(SCC(F)(F)F)c(C)cc2F)c(=O)n1CC               logP[a]    3.62

Request: I have this compound here, C=C(C)CCOc1nn(-c2ccc(C)c([S+]([O-])CC(F)(F)F)c2)c(=O)n1C1CC1 (stereo not drawn) , and I need its recorded logP[a].
Result: 3.67

Request: For Cc1cc(F)c(-n2nnn(CC(F)(F)C(F)(F)F)c2=O)cc1[S+]([O-])CC(F)(F)F (racemic) , what is its reported logP[a]?
Result: 3.05

Request: Could you share which logP[a] value was measured for Cc1cc(F)c(-n2nc(N(C)C)n(N)c2=O)cc1SCC(F)(F)F ?
Result: 2.51

Request: Reported logP[a], compound Cc1cc(F)c(-n2nc([S+]([O-])C(C)C)n(C3CC3)c2=O)cc1[S+]([O-])CC(F)(F)F (stereo not drawn) : ____
Result: 2.08

Request: Sample CCn1c([S+](C)[O-])nn(-c2cc(SCC(F)(F)F)c(C)cc2F)c1=O (stereo not drawn) — what was its logP[a]?
Result: 2.53

Request: Please report the recorded logP[a] for Cc1cc(F)c(-n2nc(SCC3CC3)n(C)c2=O)cc1SCC(F)(F)F .
Result: 3.91

Request: What does the record list as logP[a] for CCCOc1nn(-c2ccc(C)c(SCC(F)(F)F)c2)c(=O)n1C1CC1 ?
Result: 4.66

Request: May I ask what logP[a] has been recorded for Cc1cc(F)c(-n2nc(S(C)(=O)=O)n(C3CC3)c2=O)cc1[S+]([O-])CC(F)(F)F (stereo not drawn) ?
Result: 2.12

Request: logP[a] lookup needed for Cc1cc(F)c(-n2nc([S+](C)[O-])n(C3CC3)c2=O)cc1[S+]([O-])CC(F)(F)F (stereo not drawn) , thanks.
Result: 1.61

Request: GET /values?readout=logP[a]&item= Cc1cc(F)c(-n2nc(C(C)(C)C)oc2=O)cc1[S+]([O-])CC(F)(F)F (racemic)
Result: 3.10
